Assay: amyloid nucleation score (Sup35N fusion, yeast selection) (log enrichment); library NNK2; higher = more nucleation; inactive = no reads after selection;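 further: zero at mode of non-aggregating sequences after 7 days selection at 30°C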

- Monomer sequence: "SCVMGYKEVAFL"
  amyloid nucleation score: -0.081
- Monomer sequence: "ILRTDMMINMDLLFGNVGNL"
  amyloid nucleation score: 3.38
- Monomer sequence: "IDQCIYDHVHNWVRRVDTRS"
  amyloid nucleation score: 0.223
- Monomer sequence: "EMVSLCSSRFRRMMGACLGT"
  amyloid nucleation score: 1.39
- Monomer sequence: "SYTWFSYIWYSLVFLRD"
  amyloid nucleation score: -0.088
- Monomer sequence: "CESHVSRWYSVS"
  amyloid nucleation score: 0.505
